Assay: protein stability index of a GFP-peptide fusion (yeast GPS) (PSI 1-4); higher = more stable; sorted into four equal gates, so the index is relative within each strain
Details: doa10∆
measured parameter: protein stability index
Form field (numeric): enter value without unit.

The following sequences have reported results that may help.
- macromolecule sequence: "IGAELKREESESAAVYN [SNF2]"
  protein stability index: 2.99
- macromolecule sequence: "ADTGRDDTKETVYISSI [RPN11]"
  protein stability index: 3.12
- macromolecule sequence: "ALILADSEIEISSEKLL [RPP1A]"
  protein stability index: 1.95
- macromolecule sequence: "DTLKDISTSFCFICLLH [BRN1]"
  protein stability index: 2.01
- macromolecule sequence: "MSNIVGIEYNRVTNTTS [RPC40]"
  protein stability index: 3.36

Entry under test: LKVLSEHLDCMNFISKE [PCI8] . Its protein stability index was 2.72

Notebook: KKFLRVRIFTKIESEDD [SRB4] , protein stability index read as 1.46

The recorded protein stability index for VEDELTESIALSSMRFK [RRI1] is 3.21

Lab note: EKIKSKKINRRNETSVD [YCG1] gave protein stability index of 3.38

# protein stability index of PLHLIFAQPVADIENST [SSN2] = 2.67

Input EPELRVLSTEEILNIFK [RPO21] . Output protein stability index: 3.43

For record EDLLECLDRCKEQYNRY [MTR3] the listed protein stability index is 3.18

// sample EKDCSLRAIEKNDDNSC [YIL149C/MLP2] , its protein stability index was 2.32

The sequence listed as RMPIMLRSNKCILYDAD [RET1] has a reported protein stability index of 1.23

protein stability index measured on FPESIWKDFTVEIAFLF [YCG1] = 2.25

Per the record, RQTTSNTGLLNKANIQA [RPN11] has protein stability index of 3

protein stability index reading for DLKKLNLNVYIQVFEKP [CDC53] : 2.23

# protein stability index (sequence: VKTKTIELIDYDKLPAG [RET1] ) is 2.98

The reported value for YNRHKLQELIVNGPNVH [RPO31] in terms of protein stability index is 1.19
